system: effets β2 (diminution de la pression artérielle diastolique) de l'isoprénaline; assay: β-blocking activity: inhibition of the β2 effects of intravenous isoprenaline in anaesthetised dogs; type: in vivo, chiens; conditions: Canis lupus familiaris, iv; 0,100 mg/kg I.V., dog; inhibition given with negative sign; read-out: % d'inhibition des effets β2^⊕ de l'Isoprénaline
parameterMeasured: inhibition at 0.1 mg/kg (%)

compound="C=CCc1cc(NC(=O)Cc2ccsc2)ccc1OCC(O)CNC(C)(C)C (stereo not shown)" systemundertest="effets β2 (diminution de la pression artérielle diastolique) de l'isoprénaline" val=-27
compound="CC(C)NCC(O)COc1ccc(NC(=O)Cc2cccs2)cc1Br (stereo not shown)" systemundertest="effets β2 (diminution de la pression artérielle diastolique) de l'isoprénaline" val=-4
compound="CC(C)NCC(O)COc1ccc(NC(=O)Cc2ccsc2)cc1Cl (stereo not shown)" systemundertest="effets β2 (diminution de la pression artérielle diastolique) de l'isoprénaline" val=-19
compound="CC(C)(C)NCC(O)COc1ccc(NC(=O)Cc2ccsc2)cc1Cl (stereo not shown)" systemundertest="effets β2 (diminution de la pression artérielle diastolique) de l'isoprénaline" val=-33
compound="CC(C)(C)NCC(O)COc1ccc(NC(=O)Cc2ccsc2)cc1Br (stereo not shown)" systemundertest="effets β2 (diminution de la pression artérielle diastolique) de l'isoprénaline" val=-55
compound="C=CCc1cc(NC(=O)Cc2cccs2)ccc1OCC(O)CNC(C)(C)C (stereo not shown)" systemundertest="effets β2 (diminution de la pression artérielle diastolique) de l'isoprénaline" val=-17
compound="CC(C)NCC(O)COc1ccc(NC(=O)Cc2cccs2)cc1F (stereo not shown)" systemundertest="effets β2 (diminution de la pression artérielle diastolique) de l'isoprénaline" val=-52
compound="CC(C)(C)NCC(O)COc1ccc(NC(=O)Cc2cccs2)cc1C#N (stereo not shown)" systemundertest="effets β2 (diminution de la pression artérielle diastolique) de l'isoprénaline" val=-36
compound="CC(C)(C)NCC(O)COc1ccc(NC(=O)Cc2cccs2)cc1Cl (stereo not shown)" systemundertest="effets β2 (diminution de la pression artérielle diastolique) de l'isoprénaline" val=-22
compound="CC(C)NCC(O)COc1ccc(NC(=O)Cc2ccsc2)cc1C#N (stereo not shown)" systemundertest="effets β2 (diminution de la pression artérielle diastolique) de l'isoprénaline" val=-39
compound="CC(C)(C)NCC(O)COc1ccc(NC(=O)Cc2cccs2)cc1Br (stereo not shown)" systemundertest="effets β2 (diminution de la pression artérielle diastolique) de l'isoprénaline" val=-49
compound="CC(C)(C)NCC(O)COc1ccc(NC(=O)Cc2cccs2)cc1F (stereo not shown)" systemundertest="effets β2 (diminution de la pression artérielle diastolique) de l'isoprénaline" val=-12
compound="CC(C)NCC(O)COc1ccc(NC(=O)Cc2cccs2)cc1Cl (stereo not shown)" systemundertest="effets β2 (diminution de la pression artérielle diastolique) de l'isoprénaline" val=-15
compound="CC(C)NCC(O)COc1ccc(NC(=O)Cc2ccsc2)cc1Br (stereo not shown)" systemundertest="effets β2 (diminution de la pression artérielle diastolique) de l'isoprénaline" val=0
compound="CC(C)(C)NCC(O)COc1ccc(NC(=O)Cc2ccsc2)cc1C#N (stereo not shown)" systemundertest="effets β2 (diminution de la pression artérielle diastolique) de l'isoprénaline" val=-42
compound="CC(C)NCC(O)COc1ccc(NC(=O)Cc2cccs2)cc1C#N (stereo not shown)" systemundertest="effets β2 (diminution de la pression artérielle diastolique) de l'isoprénaline" val=0

* * *

test system: rat génétiquement hypertendu: Rat OKAMOTO; assay: Antihypertensive activity in spontaneously hypertensive rats (tail-cuff systolic pressure and heart rate after oral dosing); type: in vivo; conditions: 128 mg.kg^-1 V.O, T+1 heure
parameterMeasured: Pression systolique Δ (mmHg) T+1 heure m (sm)

compound="CC(C)(C)NCC(O)COc1ccc(NC(=O)Cc2cccs2)cc1C#N (stereo not drawn) [exemple 7]" val="-27 (5) mmHg"
compound="CC(C)NCC(O)COc1ccc(NC(=O)Cc2cccs2)cc1Br (stereo not drawn) [exemple 40]" val="-58 (10) mmHg"
compound="CC(C)NCC(O)COc1ccc(NC(=O)Cc2ccsc2)cc1C#N (stereo not drawn) [exemple 10]" val="-13 (12) mmHg"
compound="CC(C)(C)NCC(O)COc1ccc(NC(=O)Cc2cccs2)cc1Br (stereo not drawn) [exemple 39]" val="-33 (9) mmHg"
compound="CC(C)NCC(O)COc1ccc(NC(=O)Cc2cccs2)cc1Cl (stereo not drawn) [exemple 44]" val="-37 (11) mmHg"
compound="CC(C)NCC(O)COc1ccc(NC(=O)Cc2cccs2)cc1C#N (stereo not drawn) [exemple 8]" val="-39 (8) mmHg"

* * *

system: effets β2 (diminution de la pression artérielle diastolique) de l'isoprénaline; assay: β-blocking activity: inhibition of the β2 effects of intravenous isoprenaline in anaesthetised dogs; format: in vivo, chiens; details: Canis lupus familiaris, iv; 0,010 mg/kg I.V., dog; inhibition given with negative sign; read-out: % d'inhibition des effets β2^⊕ de l'Isoprénaline
parameterMeasured: inhibition at 0.01 mg/kg (%)

compound="CC(C)(C)NCC(O)COc1ccc(NC(=O)Cc2cccs2)cc1F (stereo not drawn)" val=0
compound="CC(C)NCC(O)COc1ccc(NC(=O)Cc2ccsc2)cc1Cl (stereo not drawn)" val=-20
compound="CC(C)(C)NCC(O)COc1ccc(NC(=O)Cc2cccs2)cc1Br (stereo not drawn)" val=-5
compound="CC(C)(C)NCC(O)COc1ccc(NC(=O)Cc2cccs2)cc1Cl (stereo not drawn)" val=0
compound="CC(C)NCC(O)COc1ccc(NC(=O)Cc2ccsc2)cc1Br (stereo not drawn)" val=0
compound="CC(C)NCC(O)COc1ccc(NC(=O)Cc2cccs2)cc1Br (stereo not drawn)" val=0
compound="CC(C)(C)NCC(O)COc1ccc(NC(=O)Cc2ccsc2)cc1Br (stereo not drawn)" val=-31
compound="CC(C)(C)NCC(O)COc1ccc(NC(=O)Cc2ccsc2)cc1Cl (stereo not drawn)" val=-23
compound="C=CCc1cc(NC(=O)Cc2cccs2)ccc1OCC(O)CNC(C)(C)C (stereo not drawn)" val=0

* * *

# Pression systolique Δ (mmHg) T+1 heure m (sm) per entry
test system: rat génétiquement hypertendu: Rat OKAMOTO; assay: Antihypertensive activity in spontaneously hypertensive rats (tail-cuff systolic pressure and heart rate after oral dosing); format: in vivo; details: 64 mg.kg^-1 V.O, T+1 heure
parameterMeasured: Pression systolique Δ (mmHg) T+1 heure m (sm)

compound="CC(C)(C)NCC(O)COc1ccc(NC(=O)Cc2ccsc2)cc1C#N (centres unmarked)" systemundertest="rat génétiquement hypertendu: Rat OKAMOTO" val="-16 (4) mmHg"
compound="CC(C)(C)NCC(O)COc1ccc(NC(=O)Cc2ccsc2)cc1Cl (centres unmarked)" systemundertest="rat génétiquement hypertendu: Rat OKAMOTO" val="-32 (5) mmHg"
compound="CC(C)NCC(O)COc1ccc(NC(=O)Cc2cccs2)cc1F (centres unmarked)" systemundertest="rat génétiquement hypertendu: Rat OKAMOTO" val="-51 (6) mmHg"
compound="CC(C)(C)NCC(O)COc1ccc(NC(=O)Cc2ccsc2)cc1Br (centres unmarked)" systemundertest="rat génétiquement hypertendu: Rat OKAMOTO" val="-44 (14) mmHg"
compound="C=CCc1cc(NC(=O)Cc2cccs2)ccc1OCC(O)CNC(C)(C)C (centres unmarked)" systemundertest="rat génétiquement hypertendu: Rat OKAMOTO" val="-54 (1) mmHg"
compound="C=CCc1cc(NC(=O)Cc2ccsc2)ccc1OCC(O)CNC(C)(C)C (centres unmarked)" systemundertest="rat génétiquement hypertendu: Rat OKAMOTO" val="-31 (5) mmHg"
compound="CC(C)NCC(O)COc1ccc(NC(=O)Cc2ccsc2)cc1Br (centres unmarked)" systemundertest="rat génétiquement hypertendu: Rat OKAMOTO" val="-43 (8) mmHg"
compound="CC(C)(C)NCC(O)COc1ccc(NC(=O)Cc2cccs2)cc1Cl (centres unmarked)" systemundertest="rat génétiquement hypertendu: Rat OKAMOTO" val="-29 (9) mmHg"

* * *

test system: rat génétiquement hypertendu: Rat OKAMOTO; test: Antihypertensive activity in spontaneously hypertensive rats (tail-cuff systolic pressure and heart rate after oral dosing); type: in vivo; conditions: 128 mg.kg^-1 V.O, T+5 heures
# Fréquence cardiaque Δ (battements/min) T+5 heures m (sm) per entry
parameterMeasured: Fréquence cardiaque Δ (battements/min) T+5 heures m (sm)

compound="CC(C)NCC(O)COc1ccc(NC(=O)Cc2cccs2)cc1Br (stereo not drawn)" systemundertest="rat génétiquement hypertendu: Rat OKAMOTO" val="+18 (11) battements/min"
compound="CC(C)NCC(O)COc1ccc(NC(=O)Cc2cccs2)cc1Cl (stereo not drawn)" systemundertest="rat génétiquement hypertendu: Rat OKAMOTO" val="+52 (11) battements/min"
compound="CC(C)(C)NCC(O)COc1ccc(NC(=O)Cc2cccs2)cc1Br (stereo not drawn)" systemundertest="rat génétiquement hypertendu: Rat OKAMOTO" val="+47 (4) battements/min"
compound="CC(C)NCC(O)COc1ccc(NC(=O)Cc2ccsc2)cc1C#N (stereo not drawn)" systemundertest="rat génétiquement hypertendu: Rat OKAMOTO" val="+25 (7) battements/min"
compound="CC(C)(C)NCC(O)COc1ccc(NC(=O)Cc2cccs2)cc1C#N (stereo not drawn)" systemundertest="rat génétiquement hypertendu: Rat OKAMOTO" val="+25 (9) battements/min"
compound="CC(C)NCC(O)COc1ccc(NC(=O)Cc2cccs2)cc1C#N (stereo not drawn)" systemundertest="rat génétiquement hypertendu: Rat OKAMOTO" val="+12 (13) battements/min"

Cited source: patent EP0071535B1
